Assay Target: human IgG (human)
Assay Info: competitive ELISA, PpL on the plate, human IgG
Metric Name: Kd (nM)

> print(dat)
                                     binder  endpoint.unit  observed
1  Y64W PpL (protein) MNIKFAGKETPETPEEPKEEVTIKVNLIFADGKIQTAEFKGTFEEATAEAYRYADLLAKVNGEWTADLEDGGNHMNIKFAGK             nM       129
